System: RXF 393
Assay: NCI tumour cell line growth inhibition, 48 h
Calls of active or inactive are those of the source. Cut-off read from the data, not from the text of the source: active = GI50 up to about 1.1 µM and inactive = higher.
Entry note: the call must match one of active, inactive

What classification did O=C(O)CCC(NC(=O)c1ccc(OCc2nc3cc(C(F)(F)F)ccc3nc2-c2ccccc2)cc1)C(=O)O (stereo not given) end up with in this test?
inactive

What classification did O=C1N2Cc3c4ccc5c3CN3C(=O)N6Cc7c(ccc(c7CN1C6(c1ccccc1)C23c1ccccc1)OCCOCCOc1cc(Br)c(Br)cc1OCCOCCO4)OCCOCCOc1cc(Br)c(Br)cc1OCCOCCO5 (stereo not given) end up with in this test?
inactive

What classification did O=C(O)c1cc(=O)c2c([nH]c3ccccc32)s1 end up with in this test?
inactive

What classification did CC1=C(C(=O)Nc2ccc([N+](=O)[O-])cc2)C(c2ccco2)C(C(=O)Nc2ccc([N+](=O)[O-])cc2)=C(C)N1 end up with in this test?
inactive

What classification did O=S(=O)(SC1=NCCN1)c1ccc2ccccc2c1 end up with in this test?
inactive

What classification did CC(=O)CCCCn1c(=O)c2c(nc(Br)n2C)n(C)c1=O end up with in this test?
inactive

What classification did C1CSCCSCCSCCSCCS1 end up with in this test?
inactive

What classification did CC(=O)Nc1ccc2c(c1)nc1c3ccccc3ccn21 end up with in this test?
inactive

What classification did O=c1[nH]nc(-c2ccccc2)n1/N=C/c1cccc([N+](=O)[O-])c1 end up with in this test?
inactive

What classification did CC1=C[C@]2(CC(C)C3C(CC4(C)C5CCC6C(C)(C)C(=O)CC[C@@]67C[C@@]57CC[C@]34C)O2)OC1=O (stereo not given in full) end up with in this test?
inactive

What classification did CC(C)(C)OC(=O)N1C(=O)OC[C@@H]2C=C[C@@H]21 end up with in this test?
inactive

What classification did CC(C)CC(=O)OC[n+]1ccc(-c2c(COC(=O)NC(C)C)c(COC(=O)NC(C)C)c3n2CCC3)cc1 end up with in this test?
inactive

What classification did CCOCC(=O)N[C@H]1CCc2cc(OC)c(OC)c(OC)c2-c2ccc(OC)c(=O)cc21 end up with in this test?
active

What classification did N#Cc1cc2c(cc1Cl)Sc1nccn1S2(=O)=O end up with in this test?
inactive

What classification did Nc1nc(Sc2ccc([N+](=O)[O-])c3nonc23)c2nc[nH]c2n1 end up with in this test?
inactive

What classification did COc1cccc2c1C(=O)OC2c1cccc2ccccc12 (stereo not given) end up with in this test?
inactive

What classification did COP1(=S)OCC2CCC[C@@H]2O1 (stereo not given in full) end up with in this test?
inactive

What classification did C=CCN1C(=O)CS/C1=N\NC(=O)c1c(C)nc2sccn12 end up with in this test?
inactive

What classification did CC(=O)Nc1cc(C(=O)Nc2cc(C(=O)N3CC(CCl)c4c3cc(N)c3ccccc43)nn2C)nn1C (stereo not given) end up with in this test?
active

What classification did CC(C(=O)Oc1ccc2ccccc2c1-c1c(O)ccc2ccccc12)c1ccccc1 (stereo not given) end up with in this test?
inactive
